meta.source: the supplement of paper PMC12042874

assay: amyloid nucleation score (Sup35N fusion, yeast selection) (log enrichment); library NNK1; higher = more nucleation; inactive = no reads after selection;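 note: zero at mode of non-aggregating sequences after 7 days selection at 30°C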
Short version: amyloid nucleation score at least 0.01 is label 1, less is label 0.

# count of solved cases: 8
WYAGFTGRFRSLFFIISIFG : label 0
KANCCCVSHWCCGYMQ : label 1
KTWNVCALARGWECEAINVW : label 0
MDWYIVYRPAYTLLCRIHVR : label 1
LMGNEL : label 0
TMSSFDGPSV : label 0
PGVECACRVSNATNVDGLDL : label 0
IKTAFMVMNNGKDVMSRSWG : label 1

# check: amyloid nucleation score of IFVVMQTIFMWLDSWADQSL is greater than or equal to 0.01
label 1

One more substance: FTSVITLMFNYNTFWKKSSY
label 1

One more substance: FFTRGIVMQRRQHWNGVYGS
label 1

One more substance: SMLRNTNLNAIPKFTVSFVL
label 0

* * *

assay: amyloid nucleation score (Sup35N fusion, yeast selection) (log enrichment); library NNK2; higher = more nucleation; inactive = no reads after selection
amyloid nucleation score for assorted substances
A bare number is all that is needed in reply.

Completed entries (count: 3):
YFGGFAKRQSTLPATRKYRL : 1.34
VNFPLVSGG : 0.114
PNRIFFTLFCLTKYIIPMFM : -1.33

Would you kindly share the measured amyloid nucleation score for RNITVTIFCLTAHRA ?
9.32

One more substance: PCRLHLAWIVSLMT
4.21

One more substance: SRFISLSSEDVSALNTCNNR
1.25

One more substance: TPTYLRYIVVIYL
2.41

One more substance: LNLFWKQSGTVRLDDGWRSV
0.969

One more substance: LVSFGVYMLSSVRKECHSLN
0.536

One more substance: NINYGSSA
-0.746

One more substance: TFHGFMCGQTLRGPFRLSWW
3.95

One more substance: FGLSRL
0.713

One more substance: EWSVWRSAKWQFQARNGMQG
2.05

One more substance: WPVGLFKSGAISAV
-0.475

One more substance: LPHKIM
0.262

One more substance: FCSTTAICYKGEKQ
3.47

One more substance: YTAWMALKNGRLVSGFKAR
0.009

One more substance: KRKLSKYFLRLKLKCFWVM
-0.753

One more substance: YISFVGW
-2.23

One more substance: SSWLEVAMTALRSIWYMD
0.103

One more substance: IMSMGGVLMFWS
3.66

One more substance: HVWLDLTYGNILQNRNCLTW
-0.335

One more substance: ALERWS
0.024

One more substance: FPCRGLGGVLW
1.97

One more substance: VSLGDYASAGFLMWIRLHVW
-0.03

One more substance: YEVHDDLYYTNKLRTRANGV
1.46

* * *

test: amyloid nucleation score (Sup35N fusion, yeast selection) (log enrichment); library NNK2; higher = more nucleation; inactive = no reads after selection
Short version: amyloid nucleation score at least 0.7 is YES, less is NO.

MKSLLLLCCYSELAYLCGML : NO

# check: amyloid nucleation score of VLATSFNFELGSGRTDLCRV is greater than or equal to 0.7
NO

One more substance: SPTCWRRRTPLIVKYRFISV
YES

One more substance: VVFNFFCPNHGAVTMFSCFH
YES

One more substance: QVFRFSYKCPCHAVG
YES

One more substance: NNVRMYLSFRAIVY
NO

One more substance: WINLSRFFSLGKFRIAIRYY
NO

One more substance: IYRSVTRKSERMCTVVGQVV
NO

* * *

test: amyloid nucleation score (Sup35N fusion, yeast selection) (log enrichment); library NNK3; higher = more nucleation; inactive = no reads after selection
observable: amyloid nucleation score

Completed entries (count: 4):
VYLKLSILFSCAFSN : inactive
PERTPFGSNYIYFVKRTRLL : inactive
LTSESSDEICGGRATSVLCL : inactive
DSNLRLYALTRCHKALHVMS : inactive

Would you kindly share the measured amyloid nucleation score for TRIGSTEKTEQSVWD ?
-0.198

One more substance: DHWLLQYERRCKLGGFGY
inactive

One more substance: SCVMSWIFWNFVWCYSVRCV
inactive

One more substance: RSGKVSFFIGYNVVGLMRFR
inactive

One more substance: LRHHSSSVAPVRVGILRCNS
inactive

One more substance: ILKKRFRMVPLK
inactive

One more substance: LRWSIEGFLVSMMKY
inactive

One more substance: WIAVPRVGTWVGEKMS
inactive

* * *

assay: amyloid nucleation score (Sup35N fusion, yeast selection) (log enrichment); library NNK3; higher = more nucleation; inactive = no reads after selection
observable: amyloid nucleation score

Completed entries (count: 5):
ELIWAEGYRKSCKLGPVIS : inactive
LCKFYRYRTLRHSEEKPCHH : inactive
LYGVNSCLIH : inactive
RAECSISSIIIYCAGRPSLI : 1.07
KIRIGW : inactive

Would you kindly share the measured amyloid nucleation score for TVYSTVSRDMNDKHFAGSTG ?
inactive

One more substance: TDWYVIF
inactive

One more substance: ISILLIFPCEAVIFLPF
inactive

One more substance: TYGNENSSLILSCTCYIMLS
2.41

One more substance: MGMEIEQYNFTALLRD
inactive

One more substance: GNEWRWWVLRNLLSCFSIP
inactive

One more substance: ARPMIPMCLLQRAMYPLYSP
inactive

One more substance: FLLCHYCFFVDTPGRIFYYS
0.724

One more substance: TCSYKSC
inactive

* * *

assay: amyloid nucleation score (Sup35N fusion, yeast selection) (log enrichment); library NNK3; higher = more nucleation; inactive = no reads after selection
amyloid nucleation score for assorted substances
A bare number is all that is needed in reply.

Completed entries (count: 3):
ATTVNGFIISHRVYNAGSWY : 1.28
LINFEY : 1.16
EQYRSTTGLESL : -0.2

Consider the additional substance presented here.
Would you kindly share the measured amyloid nucleation score for NWNYLISMRGFTEYGESFWW ?
-0.18

* * *

amyloid nucleation score for assorted sequences
assay: amyloid nucleation score (Sup35N fusion, yeast selection) (log enrichment); library NNK3; higher = more nucleation; inactive = no reads after selection
A bare number is all that is needed in reply.

Completed entries (count: 2):
TVSTNDFSL : -0.61
FCRLWVRVSSDTFYYSFSGN : 0.537

Consider the additional sequence presented here.
Would you kindly share the measured amyloid nucleation score for EDFPRALVVRSYQWIYIQNV ?
1.24

* * *

assay: amyloid nucleation score (Sup35N fusion, yeast selection) (log enrichment); library NNK3; higher = more nucleation; inactive = no reads after selection
observable: amyloid nucleation score

CVLRAFATVKHFTSGLCSCG : inactive
NRTRCGDYILGCQSSFDTCH : inactive
AKCMSDFVECRKSRRMMAGW : inactive

* * *

amyloid nucleation score for assorted sequences
test: amyloid nucleation score (Sup35N fusion, yeast selection) (log enrichment); library NNK1; higher = more nucleation; inactive = no reads after selection
A bare number is all that is needed in reply.

DVAARVQKNCPVIIGAIRSK : 0.091

Would you kindly share the measured amyloid nucleation score for PQGLTSSSMGLTSANHSAA ?
0.637

One more sequence: RVTVTLFYMFNNRGEGKSQA
3.44

One more sequence: SCPTMYSYVFWVRFQSGTAS
1.72

One more sequence: CFCFFIVSPMMF
3.89

One more sequence: EKGFVYYTRGYLRDGLGRSQ
-0.222

One more sequence: RLAVLEELMVRICIVIRNFW
-0.328

One more sequence: EAFRLCGLVRACVAFCG
0.116

One more sequence: YAPWGGKNSRYAGSVM
0.701

One more sequence: FKRSLRCLYVVACNALYWDA
-0.026

One more sequence: WRMVAIWKNLD
-0.013

* * *

test: amyloid nucleation score (Sup35N fusion, yeast selection) (log enrichment); library NNK2; higher = more nucleation; inactive = no reads after selection
Short version: amyloid nucleation score at least -0.1 is criterion met, less is criterion not met.

# count of solved cases: 3
TWSEWSTCRMGATRSH : criterion met
ISKLSARSLSRVVNLYKGVA : criterion met
LTGCGDFSLLSIYFSRMHRG : criterion met

# check: amyloid nucleation score of SMMKLDEYI is greater than or equal to -0.1
criterion not met

One more sequence: TRFFTSLK
criterion not met

One more sequence: NRAFLMSYAPRRHFGAMSKA
criterion met

One more sequence: NILVLLVTGVTLGR
criterion met

One more sequence: YVLIVRYILGSSLRELAYGR
criterion not met

One more sequence: KVLRLIRY
criterion met

* * *

assay: amyloid nucleation score (Sup35N fusion, yeast selection) (log enrichment); library NNK2; higher = more nucleation; inactive = no reads after selection
observable: amyloid nucleation score

VFTILSCWGPYRCVVTRALL : inactive
YIVLCYSFRFVFF : inactive
SLLLMDYFLYYYLSVEKRQR : inactive
